- testedTarget: FRMPD4, Q14CM0
- Sequence (Q14CM0 67-160): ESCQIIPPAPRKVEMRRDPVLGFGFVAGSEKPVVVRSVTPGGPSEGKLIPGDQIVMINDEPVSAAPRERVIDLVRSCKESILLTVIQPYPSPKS
- procedureText: holdup assay
- Parameters: key: below the threshold = too weak to quantify, mostly under pKd 3.1 to 4
- conditionInfo: plain residues with an end cap or a label only (N-terminal biotin on a linker: ado-ado)
measuredQuantity: pKd

Sample answers from the record:
{"binder": "PLATCDETSI [SEMA4F, O95754]", "measuredQuantity": "pKd", "testValue": "below the threshold"}
{"binder": "NNMAFETTHF [SLC5A12, Q1EHB4]", "measuredQuantity": "pKd", "testValue": "below the threshold"}
{"binder": "SQPLLVHDDV [KIT, P10721]", "measuredQuantity": "pKd", "testValue": "below the threshold"}
{"binder": "PEKVSNTTVV [IGSF5, Q9NSI5]", "measuredQuantity": "pKd", "testValue": "below the threshold"}
{"binder": "QLGSPTADLA [SIPA1, Q96FS4]", "measuredQuantity": "pKd", "testValue": "below the threshold"}

Task: Provide only the value of recorded pKd for KKTPVSRSHL [SLC22A3, O75751]
Output: 3.58

Task: Entry PGKKPEDSRV [SLCO2B1, O94956] needs its pKd filled in; supply it.
Output: below the threshold

Task: Determine its reported pKd: IGHEDLETAV [DGKI, O75912]
Output: 3.9

The origin of these recorded values is paper PMC9482650.
